Reference for the values: the antibiotic and cytotoxicity screens of Wong et al. (2023)

test system: HepG2; assay: cytotoxicity call (relative viability < 0.9); details: 10 µM
Hit rate of the full screen: of about 39,000 compounds, about 3,300 (8.5%) were called active. Only a selection was taken, and actives are over-represented in it overall.
Outcome (select one): active, inactive

Below are worked cases with known answers.
q: Could you kindly confirm the outcome this assay logged for O=c1[nH]nc(N2CCOCC2)c(=O)[nH]1 ?
a: inactive

q: Could you kindly confirm the outcome this assay logged for C[C@H](CO)N1C[C@H](C)[C@H](CN(C)Cc2ccc(-c3ccccc3)cc2)Oc2ccc(NC(=O)CCC(F)(F)F)cc2C1=O ?
a: active

q: Could you kindly confirm the outcome this assay logged for C[C@H]1CN([C@@H](C)CO)C(=O)c2cc(NC(=O)CCC(F)(F)F)ccc2O[C@@H]1CN(C)Cc1ccc(-c2ccccc2)cc1 ?
a: active

q: Could you kindly confirm the outcome this assay logged for C[C@@H]1CCCCO[C@@H](CN(C)Cc2ccc3c(c2)OCO3)[C@H](C)CN([C@H](C)CO)C(=O)c2cc(NS(=O)(=O)c3cccs3)ccc2O1 ?
a: inactive

q: Could you kindly confirm the outcome this assay logged for Cc1noc(C)c1S(=O)(=O)Nc1cccc2c1O[C@H](CN(C)S(C)(=O)=O)[C@H](C)CN([C@H](C)CO)C2=O ?
a: inactive

q: Could you kindly confirm the outcome this assay logged for CN(C)CC(=O)Nc1ccc2c(c1)C(=O)N(C)[C@H]1CC[C@H](CC(=O)Nc3cccc(Cl)c3)O[C@@H]1CO2 ?
a: inactive

Shift focus to the following entry.
q: Could you kindly confirm the outcome this assay logged for CN1C(=O)c2cc(NC(=O)c3ccc(C(F)(F)F)cc3)ccc2OC[C@@H]2O[C@H](CC(=O)NC3Cc4ccccc4C3)CC[C@@H]21 ?
a: inactive
